Recorded values, source BigSolDB 2.1.

recorded.conditions: in toluene, 318.15 K
measured.property: solubility (mole fraction)
Give a plain numeric answer without units written out.

Kindly note the recorded solubility (mole fraction) for `Clc1ncnc2[nH]ccc12` , which is 0.00387

* * *

recorded.conditions: in methanol, 293.15 K
measured.property: solubility (mole fraction)
Please give only the number in your answer, with no unit.

GET /value?item= `Clc1ncnc2[nH]ccc12` &field=solubility (mole fraction) returns 0.011

* * *

recorded.conditions: in methanol, 313.15 K
measured.property: solubility (mole fraction)

`Clc1ncnc2[nH]ccc12` has a reported solubility (mole fraction) of 0.0205

* * *

recorded.conditions: in n-propanol, 318.15 K
measured.property: solubility (mole fraction)
Just the number, please, no unit attached.

Memo: `Clc1ncnc2[nH]ccc12` , reported solubility (mole fraction): 0.0305
